Numbers sourced from patent US20220153873A1.

Here the recorded EC50 (read off the curve) is given for each entry.
Target: recombinant neuraminidase (rNA) of B/Florida/04/06 (influenza B virus B/Florida/04/06)
Assay: ELISA, rNA B/Florida/4/2006 coated at 2 ug/mL
# value in µg/mL; strip the unit string

As a guide, the following entries are already answered.
binder	EC50 (read off the curve) (µg/mL)
recombinant 1F2 IgG1 (antibody, V domains shown) VH: QVHLQQSGPEVARPGASVKLSCKASGYTFTDYYLNWVKQRPRQGLEWIGQIHPGSTNTYYNEKFKGKATLTADKSSSTAYMQLSSLTSEDSAVYFCARSLGDGYYVYAMDYWGQGTAVTVSS VL: DIVMTQSQKFMSTSVGDRVSVTCKASQNVVTNVVWYQQKPGQSPKPLIYSASYRYSGVPDRFTGSGSGTDFTLTISNVQSEDLAEYCCQQYHSYPFTFGSGTKLEVK	0.05
recombinant 1F2 IgG2b (antibody, V domains shown) VH: QVHLQQSGPEVARPGASVKLSCKASGYTFTDYYLNWVKQRPRQGLEWIGQIHPGSTNTYYNEKFKGKATLTADKSSSTAYMQLSSLTSEDSAVYFCARSLGDGYYVYAMDYWGQGTAVTVSS VL: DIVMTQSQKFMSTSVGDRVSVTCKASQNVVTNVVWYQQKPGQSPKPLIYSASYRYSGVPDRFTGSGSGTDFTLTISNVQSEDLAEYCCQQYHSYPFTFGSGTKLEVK	0.03
recombinant 1F2 IgG2a (antibody, V domains shown) VH: QVHLQQSGPEVARPGASVKLSCKASGYTFTDYYLNWVKQRPRQGLEWIGQIHPGSTNTYYNEKFKGKATLTADKSSSTAYMQLSSLTSEDSAVYFCARSLGDGYYVYAMDYWGQGTAVTVSS VL: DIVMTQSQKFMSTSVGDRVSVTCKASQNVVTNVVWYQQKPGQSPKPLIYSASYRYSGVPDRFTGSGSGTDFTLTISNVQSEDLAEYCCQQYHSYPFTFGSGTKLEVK	0.03

[Q] Fill in EC50 (read off the curve) for record 1F2 antibody (murine IgG2a, hybridoma-produced) (antibody, V domains shown, also called mAb 1F2; IF2) VH: QVHLQQSGPEVARPGASVKLSCKASGYTFTDYYLNWVKQRPRQGLEWIGQIHPGSTNTYYNEKFKGKATLTADKSSSTAYMQLSSLTSEDSAVYFCARSLGDGYYVYAMDYWGQGTAVTVSS VL: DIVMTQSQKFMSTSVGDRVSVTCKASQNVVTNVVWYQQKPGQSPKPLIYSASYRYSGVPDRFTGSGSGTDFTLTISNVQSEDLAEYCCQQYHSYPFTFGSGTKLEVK
[A] 0.03
